B1: FUNDC2 (parent)
chain: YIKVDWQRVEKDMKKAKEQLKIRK

Variants of: B1
Assay: protein stability index of a GFP-peptide fusion (GPS, HEK-293T) (PSI 1-6); higher = more stable;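 further: lentivirally expressed fusions sorted by FACS into six bins by GFP to DsRed ratio, PSI derived from sequencing read proportions per bin multiplied by bin number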
Conditions: c terminus: a fixed tail appended
Outcome label depends on protein stability index relative to 2: at/above gives t, below gives f.

mutations | assigned-class
E10T | t
V4A | t
K21G | t
R23L | f
I2W | t
V9F | f
K15P | f
K11C | f
W6N | t
M13I | f
V9I | t
Y1K | t
L20V | f
